Numbers sourced from PubChem BioAssay AID588675.

Molecular target: Mas-related G-protein coupled receptor member X1 (Homo sapiens)
Assay: positive allosteric modulators of MrgX1, primary screen, HEK293 cells, Fluo-4 calcium flux (AID 588675);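 note: compound read alongside a low EC10 to EC30 dose of BAM8-22 agonist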
Details: MrgX1-HEK293, Fluo-4 calcium flux, FDSS, at 10 µM
The whole screen tested about 310,000 compounds, of which about 1,900 (0.61%) were called active.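 Rule for the calls: active = plate-corrected calcium response at least 3 library SD above typical, normal starting fluorescence, not activating the receptor alone; inactive = the rest.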 Shown is part of a subset that was picked to be rich in actives.
Assign a class; possible classes are active, inactive

Ask: Outcome logged for `C/C(=N\Nc1ncc(Cl)cc1Cl)c1ccc(S(=O)(=O)NCc2ccco2)cc1` in this assay:
Result: inactive

Ask: Similarly, `COc1ccc(Nc2nc(=O)[nH]nc2C)cc1` ?
Result: inactive

Ask: Follow-up item: `COc1ccc(Nc2nnc(C)c3ccccc23)cc1`
Result: active

Ask: Further, for COC(=O)c1ccc(CN2CCN(CCCc3ccccc3)C(CCO)C2)cc1 (stereo unspecified) ?
Result: inactive

Ask: Next: CC1CCC(CN2CCN=C2N(C)C)CC1 (stereo unspecified)
Result: inactive

Ask: Also check `COCCCNC(=O)CN1CCN(Cc2ccccc2Cl)C1=O`
Result: inactive

Ask: Now give it for `Cc1nc2sccn2c(=O)c1S(=O)(=O)NCCc1ccccc1` too.
Result: inactive

Ask: Please do the same for `CC(C)(C)NC(=O)COC(=O)c1cc(Cl)ccc1[N+](=O)[O-]` as well.
Result: inactive

Ask: Here is the next compound: `Cn1c(=O)[nH]c(=O)c2c1nc(CN1CCN(c3ccccc3F)CC1)n2CCc1ccccc1`
Result: inactive

Ask: Moving on to the next compound: `Cc1nnc(SCC(=O)NC(=O)NC2CCCC2)n1N`
Result: inactive

Ask: Can you handle `O=C(c1ccc(OC2CCN(Cc3ccccn3)CC2)cc1)N1CCCCCC1` next?
Result: inactive
